# experiment-notes: in vivo
# experimental-parameters: rat, po, 100 mg/kg

| smiles-representation | unit-annotation | concentration at 16 h |
| --- | --- | --- |
| O=C(O)c1cccnc1 | ng/mL | 120 |

----------
# experiment-notes: in vivo
# experimental-parameters: rat, po, 100 mg/kg

| smiles-representation | concentration at 0.5 h (µg/mL) |
| --- | --- |
| O=C(O)c1cccnc1 | 108 |

----------
# Tested on: plasma levels of free glycerol
# experiment-notes: Effect of oral administration on plasma levels of free glycerol in the empty rat
# Type: in vivo, rat (COBS CD (SD) BR male)
# experimental-parameters: 100 mg/kg oral referred to nicotinic acid, 16 h, empty rat
Each item that follows carries a reported Percent variations of plasma free glycerol with respect to the controls.
measurement-name: Percent variations of plasma free glycerol with respect to the controls (%)

| compound | readout-number |
| --- | --- |
| O=C(O)c1cccnc1 | -12 |
| O=C(OC[C@H](OC(=O)c1cccnc1)[C@@H](OC(=O)c1cccnc1)[C@H](OC(=O)c1cccnc1)[C@@H](COC(=O)c1cccnc1)OC(=O)c1cccnc1)c1cccnc1 [SORBINICATE, D-glucitol hexanicotinate] | -1 |
